Reported folding stability dG unfold values for a set of sequences
measurement notes: folding stability dG unfold from trypsin proteolysis; higher = more stable
Give just the numeric value; kcal/mol need not be written.

Some solved cases for reference:
SAGGSAGGSAKIFARAPPGQWYRITVKYKGGNGDKKEHTATIPPNNPPPDIEDVEIEPIPPGSAGGSAGGSA [r18_223_TrROS]: 3.55
SAGSSAVEVDIDEELKEKLKKLIDPDKPIEITRLKTTTNETIILITEKGSGKKYIFTRNKEGKIEIKKSAGG [r19_70_JUSTAS]: 2.07
SAGEIKITVEEVEDGELLVTVEITAESKEEALKALEDLIRELFGEDVEIVSVEFDEETKRIRVTIRIKPSAG [r5_810_TrROS_Hall]: 4.25
SAGGSAGGSWVRDADGKPIPFKIDSVETKEENNPNGNRYYEIEARFPDNGKEFKATIPADDIKSAGGSAGGS [r12_823_TrROS]: -0.551
SAGGSALYIPPGTEHTVLIKLKDDDRYYEAKVTRVYPTSIEVEVEDPLTGEKKRYTINATDIELGDSAGGSA [r15_381_TrMRF]: 2.14
SAGGSAGGSAGLTLEVELPDGKPFPVEVLEVDPGEEDVVVIRVKVKVGDKEYEVTLVLDLSAGGSAGGSAGG [r17_536_TrMRF]: 1.94

// below: folding stability dG unfold requested for another sequence
IN: Given the sequence SAGGSAGGSAGMIVIKNPETKEYYVIKFDGKEYVIELSEDELKELLEKLKGKDVEIKKLPSAGGSAGGSAGG [r11_57_TrROS_Hall] , write its reported folding stability dG unfold.
OUT: 2.01
